target_or_system: integrin α4β1 expressed on the MOLT-4 cell membrane with fibronectin (Homo sapiens, UniProt P05556+P13612)
Construct: integrin α4β1 expressed on the MOLT-4 cell membrane
Sequence (P13612 34-1032): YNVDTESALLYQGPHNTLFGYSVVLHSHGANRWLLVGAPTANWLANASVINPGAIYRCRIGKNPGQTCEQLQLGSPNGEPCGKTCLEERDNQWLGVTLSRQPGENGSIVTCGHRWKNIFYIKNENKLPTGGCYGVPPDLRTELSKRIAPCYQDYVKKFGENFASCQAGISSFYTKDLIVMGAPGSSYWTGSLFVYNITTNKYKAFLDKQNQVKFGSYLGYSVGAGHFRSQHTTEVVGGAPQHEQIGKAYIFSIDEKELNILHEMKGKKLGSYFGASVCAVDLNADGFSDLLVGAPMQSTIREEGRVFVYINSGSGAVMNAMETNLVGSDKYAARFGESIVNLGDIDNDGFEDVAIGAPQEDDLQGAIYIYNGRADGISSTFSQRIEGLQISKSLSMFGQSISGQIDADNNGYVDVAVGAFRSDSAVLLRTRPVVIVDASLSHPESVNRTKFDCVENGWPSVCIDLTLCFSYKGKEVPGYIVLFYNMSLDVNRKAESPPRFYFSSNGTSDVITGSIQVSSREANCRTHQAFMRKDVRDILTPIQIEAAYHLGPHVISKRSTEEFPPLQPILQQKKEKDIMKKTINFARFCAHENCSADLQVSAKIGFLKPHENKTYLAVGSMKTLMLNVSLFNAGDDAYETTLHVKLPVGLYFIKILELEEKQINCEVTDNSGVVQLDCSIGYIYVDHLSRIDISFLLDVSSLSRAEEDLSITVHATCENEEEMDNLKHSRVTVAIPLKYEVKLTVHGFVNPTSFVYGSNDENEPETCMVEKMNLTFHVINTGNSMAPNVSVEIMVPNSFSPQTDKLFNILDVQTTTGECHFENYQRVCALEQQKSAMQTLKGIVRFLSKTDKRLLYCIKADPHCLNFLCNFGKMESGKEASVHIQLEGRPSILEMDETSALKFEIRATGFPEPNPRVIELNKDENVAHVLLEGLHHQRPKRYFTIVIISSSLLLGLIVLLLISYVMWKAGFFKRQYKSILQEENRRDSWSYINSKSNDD
Sequence (P05556 21-798): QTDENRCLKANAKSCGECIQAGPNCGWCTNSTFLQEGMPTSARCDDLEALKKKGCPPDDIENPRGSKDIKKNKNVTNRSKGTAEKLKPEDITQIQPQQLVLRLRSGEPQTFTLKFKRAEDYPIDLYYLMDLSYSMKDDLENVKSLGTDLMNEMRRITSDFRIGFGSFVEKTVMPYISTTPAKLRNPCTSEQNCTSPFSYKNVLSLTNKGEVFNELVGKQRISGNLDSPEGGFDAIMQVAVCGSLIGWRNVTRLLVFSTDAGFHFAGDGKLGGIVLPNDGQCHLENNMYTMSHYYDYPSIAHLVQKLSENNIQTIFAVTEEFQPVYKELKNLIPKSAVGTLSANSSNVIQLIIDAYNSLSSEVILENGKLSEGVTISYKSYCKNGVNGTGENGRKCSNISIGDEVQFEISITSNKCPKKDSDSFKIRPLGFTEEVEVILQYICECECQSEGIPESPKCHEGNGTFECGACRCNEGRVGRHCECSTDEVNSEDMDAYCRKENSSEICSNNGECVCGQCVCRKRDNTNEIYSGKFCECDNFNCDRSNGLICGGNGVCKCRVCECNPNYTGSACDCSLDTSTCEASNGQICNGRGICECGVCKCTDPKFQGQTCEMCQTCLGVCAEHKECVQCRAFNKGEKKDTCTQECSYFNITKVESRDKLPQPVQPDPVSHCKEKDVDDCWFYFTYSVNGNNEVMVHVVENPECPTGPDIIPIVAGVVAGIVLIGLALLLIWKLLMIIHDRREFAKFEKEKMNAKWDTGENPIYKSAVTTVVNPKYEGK
protocol_notes: MOLT-4 cell/fibronectin adhesion assay
condition_description: MOLT-4 cells, fibronectin-coated plates, 2 h at 37° C.; read-out: inhibitor at (inhibition of MOLT-4 cell adhesion to fibronectin)
recorded_endpoint: IC50 (µM)
Write the number in µM without appending the unit.

Qu. Read off the recorded IC50 for `COc1cc(CC(=O)Nc2ccc(=O)n(CCCCC(=O)O)c2)cc2oc(Nc3ccccc3)nc12`
Ans. 1.1
